- target desc: bovine trypsin (Bos taurus)
- Sequence (P00760 24-246): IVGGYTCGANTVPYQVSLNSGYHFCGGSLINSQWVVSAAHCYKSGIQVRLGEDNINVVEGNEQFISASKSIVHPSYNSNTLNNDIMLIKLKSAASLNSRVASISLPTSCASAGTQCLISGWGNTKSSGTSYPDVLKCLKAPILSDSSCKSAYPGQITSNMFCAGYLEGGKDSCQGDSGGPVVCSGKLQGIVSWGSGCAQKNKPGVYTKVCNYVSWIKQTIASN
- test description: Proteinase inhibition assay, bovine trypsin
- Format: biochemical
- recorded conditions: Table 1; 25° C., 0.05M TRIS pH 7.4, 0.15M NaCl, 0.1% PEG, 1 mM CaCl2; listed as drawing 22; read-out: Ki (μM) Trypsin
readout: Ki (µM)
Please respond with the number in µM and leave the unit unwritten.

Req: Determine from records and report Ki for CNC(=O)C(=O)C(NC(=O)C1CCCN1C(=O)C(Cc1ccccc1)NC)C1CCC(N)CC1 (stereo not shown) [4-4]
Resp: 1.15

# credit: patent US5672582A
